Biological target: E. coli NDH-1 NuoD mutant E236A (Escherichia coli, UniProt P0AFD4+P33599, E236A)
Sequence (P33599 whole entry E236A): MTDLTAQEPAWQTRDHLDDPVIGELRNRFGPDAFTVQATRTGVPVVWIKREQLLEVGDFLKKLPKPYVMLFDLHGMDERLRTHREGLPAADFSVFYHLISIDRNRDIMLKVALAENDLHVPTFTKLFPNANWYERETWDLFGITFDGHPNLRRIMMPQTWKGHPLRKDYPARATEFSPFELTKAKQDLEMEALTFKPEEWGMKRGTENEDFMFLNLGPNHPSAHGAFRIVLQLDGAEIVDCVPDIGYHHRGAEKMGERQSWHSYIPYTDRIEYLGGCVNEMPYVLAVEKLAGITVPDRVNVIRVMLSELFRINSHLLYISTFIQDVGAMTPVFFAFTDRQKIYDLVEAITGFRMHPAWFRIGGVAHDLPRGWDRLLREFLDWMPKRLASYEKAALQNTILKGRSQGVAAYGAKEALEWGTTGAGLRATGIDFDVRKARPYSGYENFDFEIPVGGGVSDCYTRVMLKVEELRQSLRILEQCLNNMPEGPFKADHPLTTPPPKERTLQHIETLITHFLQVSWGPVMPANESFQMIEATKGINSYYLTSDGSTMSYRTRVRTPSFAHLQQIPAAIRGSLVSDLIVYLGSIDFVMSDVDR
Sequence (P0AFD4 whole entry): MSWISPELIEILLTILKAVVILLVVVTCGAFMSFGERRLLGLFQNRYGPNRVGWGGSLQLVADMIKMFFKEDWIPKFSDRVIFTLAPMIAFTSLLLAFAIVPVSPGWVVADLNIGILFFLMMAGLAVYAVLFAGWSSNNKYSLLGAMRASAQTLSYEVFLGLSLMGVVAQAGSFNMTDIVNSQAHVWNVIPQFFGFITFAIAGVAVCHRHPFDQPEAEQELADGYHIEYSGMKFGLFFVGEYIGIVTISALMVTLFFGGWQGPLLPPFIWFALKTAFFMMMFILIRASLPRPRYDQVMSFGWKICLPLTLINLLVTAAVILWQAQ
Sequence (P0AFC7 whole entry partner): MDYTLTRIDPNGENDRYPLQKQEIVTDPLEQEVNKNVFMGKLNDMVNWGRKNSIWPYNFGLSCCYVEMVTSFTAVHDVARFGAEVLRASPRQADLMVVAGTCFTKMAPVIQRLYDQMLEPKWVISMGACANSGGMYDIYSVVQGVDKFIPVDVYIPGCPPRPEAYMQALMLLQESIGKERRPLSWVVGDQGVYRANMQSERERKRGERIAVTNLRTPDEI
Test: Inhibition of dNADH oxidase activity, NuoD mutant E236A
assay.readout: IC50

>>> print(df.to_string())
                                   molecule  value_measured
0  CCCCCCCCCCCC[C@H](O)[C@H]1CC[C@H]([C@H]2CC[C@H]([C@H](O)CCCCCCCC[C@@H](O)CC3=C[C@H](C)OC3=O)O2)O1 [squamotacin]            5 nM

====

Target: E. coli NDH-1 NuoD mutant D325E (Escherichia coli, UniProt P0AFD4+P33599, D325E)
Experiment: Inhibition of dNADH oxidase activity, NuoD mutant D325E
assay.readout: IC50 (nM)

>>> df
                                item_smiles                             target_entity  assay_readout  value_measured
0  CCCCCCCCCCCC[C@H](O)[C@H]1CC[C@H]([C@H]2CC[C@H]([C@H](O)CCCCCCCC[C@@H](O)CC3=C[C@H](C)OC3=O)O2)O1  E. coli NDH-1 NuoD mutant D325E (Escherichia coli, UniProt P0AFD4+P33599, D325E)           IC50               5
